Ref: the supplement of paper PMC6555819

test system: THRa:RXRa (NR concentration 90 nM, RXRa partner concentration 90 nM); assay: PBM binding z-score (relative to random genomic background probes); higher = stronger binding; sequences stand for … in GC…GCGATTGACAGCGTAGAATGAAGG
Mark yes for reported PBM binding z-score of 0.3 or greater; mark no for anything smaller.

>>> label_value("TTACCAAGGTGAGAGGTCGTTGATGCACGCCTTG")
"yes"
>>> label_value("ATCGAAATGTCGAGGTGAGTATAGAGAAAGGGAA")
"yes"
>>> label_value("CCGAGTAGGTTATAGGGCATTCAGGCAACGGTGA")
"yes"
>>> label_value("ACAGACAGGTGATGAAAGTAACTCAGGCTATCAT")
"no"
